These measurements were taken from patent US20220324939A1.

# system: T1, soluble HLA-A2 (…) tetramer (human)
# T1 construct: Bought tetramer reagent; also called MAGE-A4/HLA tetramer reagent; HLA-A02:01 MAGE-A4 tetramer
# assay method text: flow cytometry, HLA-A2 (…) tetramer staining of CHO cells transfected with the TCR
Binary label based on % in Ag+ gate >250 MFI, >1% with cut-off 9%: below gives MET, not below gives NOT MET.

Some solved cases for reference:
PN41702 (TCR, V domains shown, stained with anti-mouse TCR constant region H57-597; full-length chains on transfected CHO cells; also called TCR No. 25) V domain 1: AQTVTQSQPEMSVQEAETVTLSCTYDTSESDYYLFWYKQPPSRQMILVIRQEAYKQQNATENRFSVNFQKAAKSFSLKISDSQLGDAAMYFCAYRSATGNQFYFGTGTSLTVIP V domain 2: DVKVTQSSRYLVKRTGEKVFLECVQDMDHENMFWYRQDPGLGLRLIYFSYDVKMKEKGDIPEGYSVSREKKERFSLILESASTNQTSMYLCASSLWAVNEKLFFGSGTQLSVL; MET
PN41520 (TCR, V domains shown, stained with anti-mouse TCR constant region H57-597; full-length chains on transfected CHO cells; also called TCR No. 6) V domain 1: AQTVTQSQPEMSVQEAETVTLSCTYDTSESDYYLFWYKQPPSRQMILVIRQEAYKQQNATENRFSVNFQKAAKSFSLKISDSQLGDAAMYFCAYRSARGNQFYFGTGTSLTVIP V domain 2: DVKVTQSSRYLVKRTGEKVFLECVQDMDHENMFWYRQDPGLGLRLIYFSYDVKMKEKGDIPEGYSVSREKKERFSLILESASTNQTSMYLCASSLWGVNSPLHFGNGTRLTVT; NOT MET
PN41513 (TCR, V domains shown, stained with anti-mouse TCR constant region H57-597; full-length chains on transfected CHO cells; also called TCR No. 3) V domain 1: AQTVTQSQPEMSVQEAETVTLSCTYDTSESDYYLFWYKQPPSRQMILVIRQEAYKQQNATENRFSVNFQKAAKSFSLKISDSQLGDAAMYFCAYRSAPGNQFYFGTGTSLTVIP V domain 2: DVKVTQSSRYLVKRTGEKVFLECVQDMDHENMFWYRQDPGLGLRLIYFSYDVKMKEKGDIPEGYSVSREKKERFSLILESASTNQTSMYLCASSLFATNEKLFFGSGTQLSVL; NOT MET

Read the next record carefully.
// query # TODO verify % in Ag+ gate >250 MFI, >1% < 9% strictly for this binder: PN41869 (TCR, V domains shown, stained with anti-mouse TCR constant region H57-597; full-length chains on transfected CHO cells; also called TCR No. 38) V domain 1: AQTVTQSQPEMSVQEAETVTLSCTYDTSESDYYLFWYKQPPSRQMILVIRQEAYKQQNATENRFSVNFQKAAKSFSLKISDSQLGDAAMYFCAYRSSTGNQFYFGTGTSLTVIP V domain 2: DVKVTQSSRYLVKRTGEKVFLECVQDMDHENMFWYRQDPGLGLRLIYFSYDVKMKEKGDIPEGYSVSREKKERFSLILESASTNQTSMYLCASSLWGTNEKLFFGSGTQLSVL
// result NOT MET
